assay: in vitro; set-up: species or system HB2, HEK293; settings: human, ccd841 cells
# class assignment by measured viability at 48 h, 10 µM: small value (below 70%), mid value (70% to below 90%), large value (90% or more)

compound: CN(Cc1cccs1)C(=O)CCl
group.label: small value
//
compound: O=C(CCl)N1CCc2cc([N+](=O)[O-])ccc21
group.label: small value
//
compound: NC(=O)C1CN(C(=O)CCl)c2ccccc2O1 (stereo not shown)
group.label: small value
//
compound: C=CC(=O)NC(=O)NCc1ccccc1
group.label: small value
//
compound: O=C(CCl)Nc1ccc(Cl)cc1Cl
group.label: mid value
//
compound: O=C(CCl)Nc1ccon1
group.label: small value
//
compound: O=C(CCl)Nc1cc(F)ccc1C(=O)O
group.label: large value
//
compound: O=C(CCl)N1CCN(c2ncc(C(F)(F)F)cc2Cl)CC1
group.label: small value
//
compound: CN(C)C(=O)CN1CCN(C(=O)CCl)CC1.Cl
group.label: large value
//
compound: C=CC(=O)N1CCN(c2cc(C)nc(C)n2)CC1
group.label: large value
//
compound: Cc1cccc(NC(=O)CCl)c1
group.label: small value
//
compound: Cl.O=C(CCl)N1CCN(c2ncccn2)CC1
group.label: mid value
//
compound: O=C(CCl)Nc1cccc2ncccc12
group.label: small value
//
compound: Cc1cc(CNC(=O)CCl)ccc1F
group.label: mid value
//
compound: O=C(CCl)Nc1ccc(-c2nnc3n2CCCCC3)cc1
group.label: small value
//
compound: N#CC1(N2CCN(C(=O)CCl)CC2)CCCCC1
group.label: large value
//
compound: C=CC(=O)N1C2CCC1CC(O)(Cc1ccc(F)cc1F)C2 (stereo not shown)
group.label: large value
//
compound: O=C(CCl)Nc1ccc2[nH]c(C(F)(F)F)nc2c1
group.label: small value
//
compound: O=C(CCl)N1CCNCC1.O=C(O)C(F)(F)F
group.label: large value
//
compound: C=CC(=O)Nc1cc(N)ccc1F
group.label: large value
//
compound: Cc1cc(SC#N)cc(C)c1NC(=O)CCl
group.label: small value
//
compound: C=CC(=O)N1CCOC2(CCc3ccccc32)C1 (stereo not shown)
group.label: large value
//
compound: C=CC(=O)N1CCCN(Cc2cn3cc(Cl)ccc3n2)CC1
group.label: large value
//
compound: Cc1ccc(CN(C)C(=O)CCl)cc1
group.label: mid value
//
compound: Cl.O=C(CCl)N1CCN(c2ccc(F)cc2)CC1
group.label: mid value
//
compound: C=CC(=O)Nc1ccc(N(C)C)cc1
group.label: large value
//
compound: CC1CCN(C(=O)CCl)CC1
group.label: large value
//
compound: CC(NC(=O)CCl)c1ccccc1 (stereo not shown)
group.label: mid value
//
compound: C=CC(=O)N1CCCCC1c1ncon1 (stereo not shown)
group.label: large value
//
compound: N#Cc1ccc(C(=O)NNC(=O)CCl)cc1
group.label: mid value
//
compound: CC1(C)C(=O)Nc2ccccc2N1C(=O)CCl
group.label: mid value
//
compound: O=C(CCl)N1CCN(S(=O)(=O)c2cccc(F)c2)CC1
group.label: small value
//
compound: N#Cc1cccc(CNC(=O)CCl)c1
group.label: large value
//
compound: C=CC(=O)N1CC(OC(=O)Nc2cccc(F)c2)C1
group.label: large value
//
compound: O=C(CCl)NC(=O)c1ccc(Cl)cc1
group.label: large value
//
compound: O=C(CCl)NCc1ccc(Cl)cc1
group.label: large value
